Values were extracted from patent US20250051277A1.

details: 120 min, 5 μM
// reported Mouse Plasma Compound 001 (%) per item
Report the value in % with no unit label.

structure_notation=COc1ccc([C@@]23CCC(OC(=O)C4CC4)=C[C@@H]2N(C)CC3)cc1OC value=61.7
structure_notation=COc1ccc([C@@]23CCC(OC(=O)c4ccccc4C)=C[C@@H]2N(C)CC3)cc1OC value=64.3
structure_notation=COc1ccc([C@@]23CCC(OC(=O)CC(C)C)=C[C@@H]2N(C)CC3)cc1OC value=70.0
structure_notation=COc1ccc([C@@]23CCC(OC(=O)C(C)(C)C)=C[C@@H]2N(C)CC3)cc1OC value=63.2
structure_notation=COc1ccc([C@@]23CCC(OC(=O)c4ccc(F)cc4)=C[C@@H]2N(C)CC3)cc1OC value=46.4
structure_notation=COc1ccc([C@@]23CCC(OC(=O)c4ccc(C#N)cc4)=C[C@@H]2N(C)CC3)cc1OC value=27.14

For the next question, use this compound.
query: Provide measured Mouse Plasma Compound 001 (%) value, entry: "C=C(C)C(=O)OC1=C[C@@H]2N(C)CC[C@]2(c2ccc(OC)c(OC)c2)CC1"
result: 57.3
